- PROCEDURE_TEXT: Cytotoxicity against human SGC7901 cells assessed as growth inhibition after 48 hrs by MTT assay
- Format: functional, cell-based
- CONDITION_DETAILS: SGC-7901, 48 h
pIC50: −log10 of the molar value.
// pIC50 lookup, one value per entry
PROPERTY_MEASURED: pIC50

INSERT INTO measurements (smiles_str, property_measured, result) VALUES
  ('CC[C@H]1OC(=O)[C@H](C)[C@@H](O)[C@H](C)[C@@H](O[C@@H]2O[C@H](C)C[C@H](N(C)CCN(C)[C@H]3C[C@@H](C)O[C@@H](O[C@@H]4[C@@H](C)[C@H](O)[C@@H](C)C(=O)O[C@H](CC)[C@@](C)(O)[C@H](O)[C@@H](C)C(=O)[C@H](C)C[C@@]4(C)OC)[C@@H]3O)[C@H]2O)[C@](C)(OC)C[C@@H](C)C(=O)[C@H](C)[C@@H](O)[C@]1(C)O', 'pIC50', '< 4.00'),
  ('CC[C@H]1OC(=O)[C@H](C)[C@@H](O)[C@H](C)[C@@H](O[C@@H]2O[C@H](C)C[C@H](N(C)CCN(C)[C@H]3C[C@@H](C)O[C@@H](O[C@@H]4[C@@H](C)[C@H](O)[C@@H](C)C(=O)O[C@H](CC)[C@@](C)(O)[C@H](O)[C@@H](C)[C@@H](O)[C@H](C)C[C@@]4(C)O)[C@@H]3O)[C@H]2O)[C@](C)(O)C[C@@H](C)[C@H](O)[C@H](C)[C@@H](O)[C@]1(C)O', 'pIC50', '< 4.00'),
  ('CC[C@H]1OC(=O)[C@H](C)[C@@H](O)[C@H](C)[C@@H](O[C@@H]2O[C@H](C)C[C@H](N(C)CCN(C)[C@H]3C[C@@H](C)O[C@@H](O[C@@H]4[C@@H](C)[C@H](O[C@H]5C[C@@](C)(OC)[C@@H](O)[C@H](C)O5)[C@@H](C)C(=O)O[C@H](CC)[C@@](C)(O)[C@H](O)[C@@H](C)C(=O)[C@H](C)C[C@@]4(C)OC)[C@@H]3O)[C@H]2O)[C@](C)(OC)C[C@@H](C)C(=O)[C@H](C)[C@@H](O)[C@]1(C)O', 'pIC50', '< 4.00');

* * *

As shown below, each of these compounds has a reported pIC50 value.
- PROCEDURE_TEXT: Cytotoxicity against human SGC7901 cells assessed as growth inhibition after 48 hrs by MTT assay
- Assay type: functional, cell-based
- CONDITION_DETAILS: SGC-7901, 48 h
pIC50: −log10 of the molar value.
PROPERTY_MEASURED: pIC50

INSERT INTO assay_data (smiles_str, result) VALUES
  ('CCCCCCCCO/N=C1/[C@H](C)C[C@@](C)(O)[C@H](O[C@@H]2O[C@H](C)C[C@H](N(C)CCN(C)[C@H]3C[C@@H](C)O[C@@H](O[C@@H]4[C@@H](C)[C@H](O[C@H]5C[C@@](C)(OC)[C@@H](O)[C@H](C)O5)[C@@H](C)C(=O)O[C@H](CC)[C@@](C)(O)[C@H](O)[C@@H](C)/C(=N\OCCCCCCCC)[C@H](C)C[C@@]4(C)O)[C@@H]3O)[C@H]2O)[C@@H](C)[C@H](O[C@H]2C[C@@](C)(OC)[C@@H](O)[C@H](C)O2)[C@@H](C)C(=O)O[C@H](CC)[C@@](C)(O)[C@H](O)[C@H]1C', '< 4.00'),
  ('CC[C@H]1OC(=O)[C@H](C)[C@@H](O[C@H]2C[C@@](C)(OC)[C@@H](O)[C@H](C)O2)[C@H](C)[C@@H](O[C@@H]2O[C@H](C)C[C@H](N(C)CCN(C)[C@H]3C[C@@H](C)O[C@@H](O[C@@H]4[C@@H](C)[C@H](O[C@H]5C[C@@](C)(OC)[C@@H](O)[C@H](C)O5)[C@@H](C)C(=O)O[C@H](CC)[C@@](C)(O)[C@H](O)[C@@H](C)/C(=N\OCc5cc(OC)c(OC)c(OC)c5)[C@H](C)C[C@@]4(C)O)[C@@H]3O)[C@H]2O)[C@](C)(OC)C[C@@H](C)C(=O)[C@H](C)[C@@H](O)[C@]1(C)O', 4.76),
  ('C=CCO/N=C1/[C@H](C)C[C@@](C)(O)[C@H](O[C@@H]2O[C@H](C)C[C@H](N(C)CCN(C)[C@H]3C[C@@H](C)O[C@@H](O[C@@H]4[C@@H](C)[C@H](O[C@H]5C[C@@](C)(OC)[C@@H](O)[C@H](C)O5)[C@@H](C)C(=O)O[C@H](CC)[C@@](C)(O)[C@H](O)[C@@H](C)/C(=N\OCC=C)[C@H](C)C[C@@]4(C)O)[C@@H]3O)[C@H]2O)[C@@H](C)[C@H](O[C@H]2C[C@@](C)(OC)[C@@H](O)[C@H](C)O2)[C@@H](C)C(=O)O[C@H](CC)[C@@](C)(O)[C@H](O)[C@H]1C', '< 4.00'),
  ('CC[C@H]1OC(=O)[C@H](C)[C@@H](O[C@H]2C[C@@](C)(OC)[C@@H](O)[C@H](C)O2)[C@H](C)[C@@H](O[C@@H]2O[C@H](C)C[C@H](N(C)CCN(C)[C@H]3C[C@@H](C)O[C@@H](O[C@@H]4[C@@H](C)[C@H](O[C@H]5C[C@@](C)(OC)[C@@H](O)[C@H](C)O5)[C@@H](C)C(=O)O[C@H](CC)[C@@](C)(O)[C@H](O)[C@@H](C)/C(=N\OCc5ccccc5)[C@H](C)C[C@@]4(C)O)[C@@H]3O)[C@H]2O)[C@](C)(O)C[C@@H](C)/C(=N/OCc2ccccc2)[C@H](C)[C@@H](O)[C@]1(C)O', '< 4.00');

* * *

- PROCEDURE_TEXT: Cytotoxicity against human SGC7901 cells assessed as growth inhibition after 48 hrs by MTT assay
- Assay type: functional, cell-based
- CONDITION_DETAILS: SGC-7901, 48 h
PROPERTY_MEASURED: IC50

INSERT INTO assay_data (smiles_str, result) VALUES
  ('CC[C@H]1OC(=O)[C@H](C)[C@@H](O[C@H]2C[C@@](C)(OC)[C@@H](O)[C@H](C)O2)[C@H](C)[C@@H](O[C@@H]2O[C@H](C)C[C@H](N(C)CC(=O)N(C)[C@H]3C[C@@H](C)O[C@@H](O[C@@H]4[C@@H](C)[C@H](O[C@H]5C[C@@](C)(OC)[C@@H](O)[C@H](C)O5)[C@@H](C)C(=O)O[C@H](CC)[C@@](C)(O)[C@H](O)[C@@H](C)C(=O)[C@H](C)C[C@@]4(C)OC)[C@@H]3O)[C@H]2O)[C@](C)(OC)C[C@@H](C)C(=O)[C@H](C)[C@@H](O)[C@]1(C)O', '16.2 µM'),
  ('CC[C@H]1OC(=O)[C@H](C)[C@@H](O[C@H]2C[C@@](C)(OC)[C@@H](O)[C@H](C)O2)[C@H](C)[C@@H](O[C@@H]2O[C@H](C)C[C@H](N(C)CC(=O)N(C)[C@H]3C[C@@H](C)O[C@@H](O[C@@H]4[C@@H](C)[C@H](O)[C@@H](C)C(=O)O[C@H](CC)[C@@](C)(O)[C@H](O)[C@@H](C)/C(=N\OCOCCOC)[C@H](C)C[C@@]4(C)O)[C@@H]3O)[C@H]2O)[C@](C)(OC)C[C@@H](C)C(=O)[C@H](C)[C@@H](O)[C@]1(C)O', '> 100 µM'),
  ('CC[C@H]1OC(=O)[C@H](C)[C@@H](O[C@H]2C[C@@](C)(OC)[C@@H](O)[C@H](C)O2)[C@H](C)[C@@H](O[C@@H]2O[C@H](C)C[C@H](N(C)CCN(C)[C@H]3C[C@@H](C)O[C@@H](O[C@@H]4[C@@H](C)[C@H](O[C@H]5C[C@@](C)(OC)[C@@H](O)[C@H](C)O5)[C@@H](C)C(=O)O[C@H](CC)[C@@](C)(O)[C@H](O)[C@@H](C)/C(=N\OCOCCOC)[C@H](C)C[C@@]4(C)O)[C@@H]3O)[C@H]2O)[C@](C)(O)C[C@@H](C)/C(=N/O)[C@H](C)[C@@H](O)[C@]1(C)O', '7.2 µM');

* * *

Listed below: IC50 values for each entry.
- PROCEDURE_TEXT: Cytotoxicity against human SGC7901 cells assessed as growth inhibition after 48 hrs by MTT assay
- Type: functional, cell-based
- CONDITION_DETAILS: SGC-7901, 48 h
PROPERTY_MEASURED: IC50

INSERT INTO results (smiles_str, property_measured, result) VALUES
  ('CC[C@H]1OC(=O)[C@H](C)[C@@H](O[C@H]2C[C@@](C)(OC)[C@@H](O)[C@H](C)O2)[C@H](C)[C@@H](O[C@@H]2O[C@H](C)C[C@H](N(C)CCN(C)[C@H]3C[C@@H](C)O[C@@H](O[C@@H]4[C@@H](C)[C@H](O[C@H]5C[C@@](C)(OC)[C@@H](O)[C@H](C)O5)[C@@H](C)C(=O)O[C@H](CC)[C@@](C)(O)[C@H](O)[C@@H](C)C(=O)[C@H](C)C[C@@]4(C)OC)[C@@H]3O)[C@H]2O)[C@](C)(O)C[C@@H](C)[C@H](N)[C@H](C)[C@@H](O)[C@]1(C)O', 'IC50', '57.8 µM'),
  ('CC[C@H]1OC(=O)[C@H](C)[C@@H](O[C@H]2C[C@@](C)(OC)[C@@H](O)[C@H](C)O2)[C@H](C)[C@@H](O[C@@H]2O[C@H](C)C[C@H](N(C)CC(=O)N(C)[C@H]3C[C@@H](C)O[C@@H](O[C@@H]4[C@@H](C)[C@H](O[C@H]5C[C@@](C)(OC)[C@@H](O)[C@H](C)O5)[C@@H](C)C(=O)O[C@H](CC)[C@@](C)(O)[C@H](O)[C@@H](C)/C(=N/OCOCCOC)[C@H](C)C[C@@]4(C)O)[C@@H]3O)[C@H]2O)[C@](C)(O)C[C@@H](C)/C(=N/OCOCCOC)[C@H](C)[C@@H](O)[C@]1(C)O', 'IC50', '13.3 µM'),
  ('CC[C@H]1OC(=O)[C@H](C)[C@@H](O[C@H]2C[C@@](C)(OC)[C@@H](O)[C@H](C)O2)[C@H](C)[C@@H](O[C@@H]2O[C@H](C)C[C@H](N(C)CCN(C)[C@H]3C[C@@H](C)O[C@@H](O[C@@H]4[C@@H](C)[C@H](O[C@H]5C[C@@](C)(OC)[C@@H](O)[C@H](C)O5)[C@@H](C)C(=O)O[C@H](CC)[C@@](C)(O)[C@H](O)[C@@H](C)/C(=N\OCc5ccccc5)[C@H](C)C[C@@]4(C)O)[C@@H]3O)[C@H]2O)[C@](C)(O)C[C@@H](C)/C(=N/OCOCCOC)[C@H](C)[C@@H](O)[C@]1(C)O', 'IC50', '> 100 µM'),
  ('CC[C@H]1OC(=O)[C@H](C)[C@@H](O)[C@H](C)[C@@H](O[C@@H]2O[C@H](C)C[C@H](N(C)C(=O)CN(C)[C@H]3C[C@@H](C)O[C@@H](O[C@@H]4[C@@H](C)[C@H](O[C@H]5C[C@@](C)(OC)[C@@H](O)[C@H](C)O5)[C@@H](C)C(=O)O[C@H](CC)[C@@](C)(O)[C@H](O)[C@@H](C)/C(=N\OCOCCOC)[C@H](C)C[C@@]4(C)O)[C@@H]3O)[C@H]2O)[C@](C)(OC)C[C@@H](C)C(=O)[C@H](C)[C@@H](O)[C@]1(C)O', 'IC50', '> 100 µM');
